human PDE10A2 (Homo sapiens (Human), UniProt Q9Y233) IC50, compiled from various sources.

Below, each entry is followed by its recorded IC50 result.
{"columns": ["chem_smiles", "experimental_system", "val"],
 "data": [
  ["CN(C)c1nc2ccc(NC(=O)c3c(C(=O)N4CC(F)C4)cnn3C)cn2n1", "human PDE10A2 (Homo sapiens (Human), UniProt Q9Y233)", "25 nM"],
  ["CC(C)c1ccc(CCN2Cc3nccc(-c4ccncc4)c3C2=O)nc1", "human PDE10A2 (Homo sapiens (Human), UniProt Q9Y233)", "< 100 nM"],
  ["CC1(C)C(=O)N(C2CCN(c3ncc4ccccc4n3)CC2)c2ncccc21", "human PDE10A2 (Homo sapiens (Human), UniProt Q9Y233)", "0.127 nM"],
  ["Cc1ccc(-c2cccc3c2C(=O)N(CCc2ccc4ccccc4n2)C3)cn1", "human PDE10A2 (Homo sapiens (Human), UniProt Q9Y233)", "< 100 nM"]
]}

Lab note: next molecule to report on.
Qu. Name the recorded IC50 of "Cc1ccn2nc(CCc3nc(N4CCCC4)n(C)n3)nc2c1C" , assay system human PDE10A2 (Homo sapiens (Human), UniProt Q9Y233).
Ans. 7.23 nM
